# MEASUREMENT_TARGET: T1, UNK ZnF1-3 (human, UniProt Q9C0B0 31-174)
# T1 sequence: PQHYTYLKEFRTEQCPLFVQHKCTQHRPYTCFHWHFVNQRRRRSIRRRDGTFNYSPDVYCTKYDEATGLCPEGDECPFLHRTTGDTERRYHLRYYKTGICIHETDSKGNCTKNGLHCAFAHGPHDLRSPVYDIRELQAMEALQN
# TEST_NAME: nsRBNS (natural sequence RNA bind-n-seq); RBNS binding buffer (assumed for nsRBNS): 25 mM Tris pH 7.5, 150 mM KCl, 3 mM MgCl2, 0.01% Triton X-100, 500 ug/ml BSA, 20 U/ml SUPERase-In, 4 C; UNK is unkempt and MSI1 is Musashi-1; names of the RNAs are library labels; protein concentration not given here; high values mean tight binding
The full ranking holds about 24,000 sequences; the median of “enrichment r” is about 0.99, and the highest 2% start at about 3.7. What follows is part of a selection rich in the highest values, with near analogues and random picks from the rest.
EXPERIMENTAL_ENDPOINT: binding signal (enrichment R)
Give bare numbers, in enrichment R.

INSERT INTO results (binder, number) VALUES
  ('chr8:122087627:122087628:-_ENSMUSG00000034189_ENSMUST00000036049|mus_mus|motif|central (ssRNA) RNA: GGGAGUUCUACAGUCCGACGAUCGCAUUAAAGGCGUGAGCCCCCACGCCCAGCCUGAGGAACAUCUUGAAAGCCAAUACGGUAAUCAGUCACCUGUAAAAGGAAAACAGGUGACUUCUCAAAAAAAAAAAAAAAAGAAAGAAACAACAGAGGAUUGAGCAUCA', 4.56);

Parameters: items (list). Returns: binding signal for each item.
1. chr17:45757878:45757879:+_ENSG00000108424_ENST00000290158|hu_hu|FALSE|FALSE (ssRNA) RNA: GGGAGUUCUACAGUCCGACGAUCUGGCCUAGCUUCUACUAAUUUCAGUACAUCCUUCCCAAAUGCUGUACAUAAGUCCCCUAUUAGUCCAGCAGCACAAGCUACUACUCCAUCUGUGUGAUCCUCAUCUCCAGCAAUGUGGUCCAACAGAGGAUUGAGCAUCA
2. chr8:122087627:122087628:-_ENSMUSG00000034189_ENSMUST00000036049|mus_mus|FALSE|FALSE (ssRNA) RNA: GGGAGUUCUACAGUCCGACGAUCGCAUUAAAGGCGUGAGCCCCCACGCCCAGCCUGAGGAACAUCUUGAAAGCCAAUACUAUAAUCAGUCACCUGUAAAAGGAAAACAGGUGACUUCUCAAAAAAAAAAAAAAAAGAAAGAAACAACAGAGGAUUGAGCAUCA

Result block:
1. 1.02
2. 5.88
